As shown below, each of these molecules has a reported fold change of 2-Phenylethylamine concentration value.
System: Ruminococcus gnavus DSM 108212
Test: fold change of 2-Phenylethylamine concentration vs plate DMSO controls (fold change (ratio)); higher = more amine produced, active = hit call of the paper (significant change in both replicates, either direction)
Conditions: incubation time: 27 h, anaerobic, 37 °C
Where a name gives a salt, the structure may show the parent alone.
measuredQuantity: fold change of 2-Phenylethylamine concentration

{"molecule": "CN1C2CCCC1CC(NC(=O)c1nn(C)c3ccccc13)C2 (centres undefined) [Granisetron] (20 µM)", "system": "Ruminococcus gnavus DSM 108212", "result": "1.08 (inactive)"}
{"molecule": "c1ccc2[nH]c(-c3cscn3)nc2c1 [Tiabendazole] (20 µM)", "system": "Ruminococcus gnavus DSM 108212", "result": "1.04 (inactive)"}
{"molecule": "CCCCN(CCCC)CCC(O)c1cc2c(Cl)cc(Cl)cc2c2cc(C(F)(F)F)ccc12 (centres undefined) [Halofantrine hydrochloride] (20 µM)", "system": "Ruminococcus gnavus DSM 108212", "result": "0.92 (inactive)"}
{"molecule": "O=C(O)c1cc(-c2ccc(F)cc2F)ccc1O [Diflunisal] (20 µM)", "system": "Ruminococcus gnavus DSM 108212", "result": "1.1 (inactive)"}
{"molecule": "C[C@]12CC[C@@H]3c4ccc(O)cc4C[C@@H](CCCCCCCCC[S+]([O-])CCCC(F)(F)C(F)(F)F)[C@H]3[C@@H]1CC[C@@H]2O (some centres undefined) [Fulvestrant] (20 µM)", "system": "Ruminococcus gnavus DSM 108212", "result": "1.21 (inactive)"}
{"molecule": "CC1(C)NC(=O)N(c2ccc([N+](=O)[O-])c(C(F)(F)F)c2)C1=O [Nilutamide] (20 µM)", "system": "Ruminococcus gnavus DSM 108212", "result": "0.981 (inactive)"}
{"molecule": "CCC1=C(C)CN(C(=O)NCCc2ccc(S(=O)(=O)NC(=O)N[C@H]3CC[C@H](C)CC3)cc2)C1=O [Glimepiride] (20 µM)", "system": "Ruminococcus gnavus DSM 108212", "result": "1.02 (inactive)"}
{"molecule": "COc1c(N2C[C@@H]3CCCN[C@@H]3C2)c(F)cc2c(=O)c(C(=O)O)cn(C3CC3)c12 [Moxifloxacin] (20 µM)", "system": "Ruminococcus gnavus DSM 108212", "result": "0.215 (active)"}
{"molecule": "CN1CCOC(c2ccccc2)c2ccccc2C1 (centres undefined) [Nefopam hydrochloride] (20 µM)", "system": "Ruminococcus gnavus DSM 108212", "result": "1.03 (inactive)"}
{"molecule": "COCCCC/C(=N\\OCCN)c1ccc(C(F)(F)F)cc1 [Fluvoxamine maleate] (20 µM)", "system": "Ruminococcus gnavus DSM 108212", "result": "1.02 (inactive)"}
{"molecule": "N[C@@H]1CCCCN(c2c(F)cc3c(=O)c(C(=O)O)cn(C4CC4)c3c2Cl)C1 [Besifloxacin hydrochloride] (20 µM)", "system": "Ruminococcus gnavus DSM 108212", "result": "0.166 (active)"}
{"molecule": "CC(C)Cn1cnc2c(N)nc3ccccc3c21 [Imiquimod] (20 µM)", "system": "Ruminococcus gnavus DSM 108212", "result": "0.162 (active)"}
{"molecule": "c1ccc2c(c1)CCCC2C1=NCCN1 (centres undefined) [Tetrahydrozoline hydrochloride] (20 µM)", "system": "Ruminococcus gnavus DSM 108212", "result": "1.01 (inactive)"}
{"molecule": "COc1cc([C@@H]2c3cc4c(cc3[C@@H](O[C@@H]3O[C@@H]5CO[C@@H](C)O[C@H]5[C@H](O)[C@H]3O)[C@H]3COC(=O)[C@H]23)OCO4)cc(OC)c1O [Etoposide] (20 µM)", "system": "Ruminococcus gnavus DSM 108212", "result": "0.236 (active)"}
{"molecule": "N#Cc1ccc(C(c2ccc(C#N)cc2)n2cncn2)cc1 [Letrozole] (20 µM)", "system": "Ruminococcus gnavus DSM 108212", "result": "1.02 (inactive)"}
{"molecule": "CC(=O)N(CC(C)C(=O)O)c1c(I)cc(I)c(N)c1I (centres undefined) [Iocetamic acid] (20 µM)", "system": "Ruminococcus gnavus DSM 108212", "result": "0.924 (inactive)"}
{"molecule": "CCN1C(=O)NC(c2ccccc2)C1=O (centres undefined) [Ethotoin] (20 µM)", "system": "Ruminococcus gnavus DSM 108212", "result": "0.855 (inactive)"}
{"molecule": "COC1=CC(=O)C[C@@H](C)[C@]12Oc1c(Cl)c(OC)cc(OC)c1C2=O [Griseofulvin] (20 µM)", "system": "Ruminococcus gnavus DSM 108212", "result": "0.98 (inactive)"}
{"molecule": "C/C(=C\\C(=O)OCCCCCCCCC(=O)O)C[C@@H]1OC[C@H](C[C@@H]2O[C@H]2[C@@H](C)[C@H](C)O)[C@@H](O)[C@H]1O [Mupirocin] (20 µM)", "system": "Ruminococcus gnavus DSM 108212", "result": "0.957 (inactive)"}
{"molecule": "CC(C)NCC(O)COc1ccc(COCCOC(C)C)cc1 (centres undefined) [Bisoprolol hemifumarate] (20 µM)", "system": "Ruminococcus gnavus DSM 108212", "result": "1.09 (inactive)"}
{"molecule": "CC(=O)Oc1cccc2c1C(=O)c1c(OC(C)=O)cc(C(=O)O)cc1C2=O [Diacerein] (20 µM)", "system": "Ruminococcus gnavus DSM 108212", "result": "0.916 (inactive)"}
{"molecule": "CCC[C@H](N[C@@H](C)C(=O)N1[C@H](C(=O)O)C[C@@H]2CCCC[C@@H]21)C(=O)OCC [Perindopril] (20 µM)", "system": "Ruminococcus gnavus DSM 108212", "result": "0.995 (inactive)"}
{"molecule": "CC(C)Cc1ccc([C@H](C)C(=O)O)cc1 [(S,+) Ibuprofen] (20 µM)", "system": "Ruminococcus gnavus DSM 108212", "result": "1.11 (inactive)"}
{"molecule": "CN[C@@H]1[C@@H](O[C@H]2O[C@H](CO)[C@@H](N)[C@H](O)[C@H]2O)OC2C[C@@H](N)[C@@H](O[C@H]3[C@H](O)[C@@H](O)[C@H](N)C[C@@H]3N)OC2[C@@H]1O (some centres undefined) [Apramycin] (20 µM)", "system": "Ruminococcus gnavus DSM 108212", "result": "0.905 (inactive)"}
{"molecule": "CCCOc1ccc2[nH]c(NC(=O)OC)nc2c1 [Oxibendazol] (20 µM)", "system": "Ruminococcus gnavus DSM 108212", "result": "0.996 (inactive)"}
{"molecule": "NC[C@H]1O[C@H](O[C@H]2[C@H](O[C@@H]3O[C@H](CO)[C@@H](O)[C@H]3O)[C@@H](O)[C@H](N)C[C@@H]2N)[C@H](N)[C@@H](O)[C@@H]1O [Ribostamycin sulfate salt] (20 µM)", "system": "Ruminococcus gnavus DSM 108212", "result": "1.03 (inactive)"}
{"molecule": "COc1cc(OC)c(C(=O)CCCN2CCCC2)c(OC)c1 [Buflomedil hydrochloride] (20 µM)", "system": "Ruminococcus gnavus DSM 108212", "result": "0.992 (inactive)"}
{"molecule": "NS(=O)(=O)c1cc2c(cc1C(F)(F)F)NC(Cc1ccccc1)NS2(=O)=O (centres undefined) [Bendroflumethiazide] (20 µM)", "system": "Ruminococcus gnavus DSM 108212", "result": "0.957 (inactive)"}
{"molecule": "Cc1c(C(=O)NN2CCCCC2)nn(-c2ccc(Cl)cc2Cl)c1-c1ccc(Cl)cc1 [Rimonabant] (20 µM)", "system": "Ruminococcus gnavus DSM 108212", "result": "0.841 (inactive)"}
